# Assay Notes: Acute toxicity test in mice
# Run Conditions: mouse, in vivo, ip; male ICR mice, intraperitoneal, observed for 14 days, Litchfield-Wilcoxon method
Measured Parameter: LD50 at 336 h (mg/kg)

>>> print(df.to_string())
                                  structure  endpoint_unit  measured_value
0  C[C@H]([C@H](C)N1CC(=O)N(CN2CCOCC2)C(=O)C1)N1CC(=O)N(CN2CCOCC2)C(=O)C1          mg/kg            10.7
